Test system: GB4
Assay: qHTS profiling for inhibitors of Plasmodium falciparum proliferation (AID 504749); also: nearly all actives have a fitted effect of over 60% in size; also: potency is read from the fitted curve at half-maximal effect
Details: P. falciparum in erythrocytes, SYBR Green DNA, 72 h; series mostly up to 28.7 µM
Records with an inconclusive call do not appear. The source made the active and inactive calls. Calls follow the shape of the dose curve; as a rule, active = well fitted inhibition curve with a large enough effect; inconclusive = small, poorly fitted or top-dose-only effect; inactive = flat fitted curve, though single readings scatter.
Measured attribute: Potency

Use the examples below as a reference point.
- Compound: "CC(C)CN(C[C@@H](OP(=O)(O)O)[C@H](Cc1ccccc1)NC(=O)O[C@@H]1CCOC1)S(=O)(=O)c1ccc(N)cc1"
  Potency: "inactive"
- Compound: "CCC(C)n1ncn(-c2ccc(N3CCN(c4ccc(OCC5COC(Cn6cncn6)(c6ccc(Cl)cc6Cl)O5)cc4)CC3)cc2)c1=O (centres undefined)"
  Potency: "inactive"
- Compound: "CC(C)(CO)C(O)C(=O)NCCCC(=O)O (centres undefined)"
  Potency: "inactive"
- Compound: "NC1=NC(S)C2N=CN=C2N1 (centres undefined)"
  Potency: "inactive"

Query string: Provide value of Potency for this record tested with GB4: CC(C)CN(C[C@@H](O)[C@H](Cc1ccccc1)NC(=O)O[C@H]1CCOC1)S(=O)(=O)c1ccc(N)cc1
Result string: inactive

Query string: Provide value of Potency for this record tested with GB4: CC(=O)OC1CC2CCC1(C)C2(C)C (centres undefined)
Result string: inactive

Query string: Provide value of Potency for this record tested with GB4: O=C(O)c1cc(O)c2c(c1)[C@H]([C@H]1c3cc(C(=O)O)cc(O)c3C(=O)c3c(O[C@@H]4OC(CO)C(O)C(O)C4O)cccc31)c1cccc(O[C@@H]3OC(CO)C(O)C(O)C3O)c1C2=O (some centres undefined)
Result string: 15.1 µM (active)

Query string: Provide value of Potency for this record tested with GB4: CN1CC[C@H](CN2c3ccccc3Sc3ccccc32)C1
Result string: 13.5 µM (active)

Query string: Provide value of Potency for this record tested with GB4: CC1CCC(C(C)C)C(OC(=O)c2ccccc2O)C1 (centres undefined)
Result string: inactive

* * *

Molecular target: Rap guanine nucleotide exchange factor 4 (Homo sapiens)
Experiment: Confirmatory qHTS for antagonist of cAMP-regulated guanine nucleotide exchange factor 4 (EPAC2) (AID 1645885); also: nearly all actives have a fitted effect of over 25% in size
Settings: EPAC2 Rap1B-BODIPY-GDP exchange fluorescence, biochemical; series mostly up to 12.7 µM
Inconclusive results are not listed. Calls of active or inactive are those of the source. Calls follow the shape of the dose curve; as a rule, active = well fitted inhibition curve with a large enough effect; inconclusive = small, poorly fitted or top-dose-only effect; inactive = no such curve, though single readings can be large or run the other way.
Entry note: the call must match one of true (active), false (inactive)

Query string: Just curious, what result did COc1ccc(Cl)cc1NC(=O)COC(=O)c1cc(NS(=O)(=O)c2cccs2)ccc1O get here?
Result string: false

* * *

Assay: Cell Viability - LYMP2-014 (AID 983);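 also: cells exposed to compound for 24 h at 37 °C; nearly all actives have a fitted effect of over 50% in size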
Details: LYMP2-014 lymphoblastoid cells, viability qHTS; series mostly up to 92.2 µM
Inconclusive results are not listed. Active and inactive are the calls of the source. Calls come from the whole dose curve; as a rule, active = well fitted cell-killing curve with a large enough effect; inconclusive = small, poorly fitted or top-dose-only effect; inactive = flat fitted curve, though single readings scatter.
Measured attribute: outcome

Use the examples below as a reference point.
- Chemical structure: "C=CC(=C)CCC=C(C)C"
  Measured value: "inactive"
- Chemical structure: "CN(C)CCCCCCN(C)C"
  Measured value: "inactive"
- Chemical structure: "O[C@@H]([C@H](O)[C@@H](O)CBr)[C@@H](O)CBr"
  Measured value: "inactive"
- Chemical structure: "O=[N+]([O-])c1cccc(Cl)c1Cl"
  Measured value: "inactive"
- Chemical structure: "c1ccc2c(c1)[nH]c1ccccc12"
  Measured value: "inactive"

Query string: Query: outcome; subject: Cc1ccc([N+](=O)[O-])c(C)c1
Result string: inactive

Query string: Query: outcome; subject: Clc1cc(Cl)c(Cl)cc1Cl
Result string: inactive

* * *

Molecular target: Lysosomal acid glucosylceramidase (Homo sapiens) (UniProt P04062)
Sequence (P04062 whole entry, looked up): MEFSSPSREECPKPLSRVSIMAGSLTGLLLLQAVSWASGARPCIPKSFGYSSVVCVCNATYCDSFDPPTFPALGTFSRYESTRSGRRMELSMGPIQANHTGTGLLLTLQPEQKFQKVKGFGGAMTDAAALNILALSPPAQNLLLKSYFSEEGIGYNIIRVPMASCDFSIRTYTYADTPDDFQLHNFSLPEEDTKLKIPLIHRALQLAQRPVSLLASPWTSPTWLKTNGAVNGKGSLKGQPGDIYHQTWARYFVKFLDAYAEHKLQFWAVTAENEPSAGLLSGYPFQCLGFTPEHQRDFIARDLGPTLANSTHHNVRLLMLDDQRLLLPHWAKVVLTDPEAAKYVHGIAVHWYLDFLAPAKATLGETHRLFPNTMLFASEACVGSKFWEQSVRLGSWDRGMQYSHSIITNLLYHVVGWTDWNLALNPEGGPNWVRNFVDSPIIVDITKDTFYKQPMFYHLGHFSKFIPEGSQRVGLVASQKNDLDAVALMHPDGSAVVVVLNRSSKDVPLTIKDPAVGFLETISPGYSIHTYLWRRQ
Assay: Glucocerebrosidase-p2 (AID 348); also: potency is read from the fitted curve at half-maximal effect
Settings: purified GBA, blue fluorogenic substrate, 40 min
Activity calls are given as the source filed them. No stated cut-off is given here; in the data, active means potency below about 10 µM; inactive means the rest.
# Potency listing for each entry below

Use the examples below as a reference point.
- Chemical structure: "CCOc1ccc2nc3cc(N=Nc4ccc(N)nc4N)ccc3c(N)c2c1"
  Potency: "> 11.4 µM (inactive)"
- Chemical structure: "Cn1cc(-c2nc3cnc(N4CCNCC4)nc3n(CCc3ccccc3)c2=O)c2ccccc21"
  Potency: "> 11.4 µM (inactive)"
- Chemical structure: "CN(Cc1ccco1)c1cc(-c2ccc3c(c2)OCO3)ncn1"
  Potency: "> 11.4 µM (inactive)"
- Chemical structure: "Cc1nc2cnc(Oc3cccc(Cl)c3)nc2n(Cc2ccc(F)cc2)c1=O"
  Potency: "> 11.4 µM (inactive)"
- Chemical structure: "COc1ccc(Oc2ncc3nc(CCc4ccccc4)c(=O)n(CCC#N)c3n2)cc1"
  Potency: "> 11.4 µM (inactive)"

With those in mind, consider the next molecule.
Query string: Query: Potency; subject: COCCn1c(=O)c(CCc2ccccc2)nc2cncnc21
Result string: > 11.4 µM (inactive)

* * *

Test system: CP269
Test: qHTS profiling for inhibitors of Plasmodium falciparum proliferation (AID 504749); also: nearly all actives have a fitted effect of over 60% in size
Conditions: P. falciparum in erythrocytes, SYBR Green DNA, 72 h; series mostly up to 28.7 µM
Records with an inconclusive call do not appear. Calls of active or inactive are those of the source. The call rests on the fitted dose curve; in most records, active means well fitted inhibition curve with a large enough effect; inconclusive means small, poorly fitted or top-dose-only effect; inactive means flat fitted curve, though single readings scatter.
Entry note: the call must match one of yes for active, no for inactive

Example entries and their recorded answers appear below.
- Compound: "CCN1/C(=C/C=C/C=C/c2sc3ccccc3[n+]2CC)Sc2ccccc21"
  Category: "yes"
- Compound: "Cc1cc(CC(C)CC(C)(C)C)n(O)c(=O)c1 (stereo not given)"
  Category: "yes"
- Compound: "CC1CCC(C(C)C)C(OC(=O)c2ccccc2O)C1 (stereo not given)"
  Category: "no"
- Compound: "CO[C@@H]1[C@@H](OC2OC(C)C(OC3CC(C)(O)C(OC(=O)CC(C)C)C(C)O3)C(N(C)C)C2O)[C@@H](CC=O)C[C@@H](C)C(=O)/C=C\\C2O[C@H]2C[C@@H](C)OC(=O)C[C@H]1OC(C)=O (stereo not given in full)"
  Category: "yes"

Query string: Just curious, what result did C/C=C\c1ccc(OC)cc1 get here?
Result string: no

Query string: Just curious, what result did CN1CC[C@H](CN2c3ccccc3Sc3ccccc32)C1 get here?
Result string: yes

Query string: Just curious, what result did CO/N=C(/C(=O)N[C@@H]1C(=O)N2C(C(=O)O)=CCS[C@H]12)c1csc(N)n1 get here?
Result string: no

Query string: Just curious, what result did NC1=NC(S)C2N=CN=C2N1 (stereo not given) get here?
Result string: no

Query string: Just curious, what result did CCC(=O)O[C@@H](OP(=O)(CCCCc1ccccc1)CC(=O)N1C[C@H](C2CCCCC2)C[C@H]1C(=O)O)C(C)C (stereo not given in full) get here?
Result string: no

Query string: Just curious, what result did CC(=O)OC1CC2CCC1(C)C2(C)C (stereo not given) get here?
Result string: no

* * *

Molecular target: Glucocorticoid receptor (Homo sapiens)
Assay: GR-GFP Redistribution (AID 450); also: potency is read from the fitted curve at half-maximal effect
Conditions: U2OS GR-GFP nuclear translocation, laser cytometry, 2 h
Experimental: NIH Molecular Libraries Screening Centers Network [MLSCN] NIH Chemical Genomics Center [NCGC] […] GR-GFP U2OS cells were maintained in DMEM with Glutamax and high glucose, 1% v/v penicillin-streptomycin, and 0.5 mg/mL Geneticin. […] The plates were read by the Acumen Explorer using a 1 x 8 um scan of the whole well area. PI fluorescence triggered the collection of PI and GFP signals. […]
Activity calls are given as the source filed them.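 The calls were made as follows: active = compounds whose dose series gives a full or clear partial fitted curve of increased nuclear translocation; inconclusive = weak partial curve or effect only at the top dose; inactive = no dose-dependent translocation response.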
# Potency listing for each entry below

Use the examples below as a reference point.
- Chemical structure: "CN(C)c1ncc2ncc(=O)n(Cc3cccs3)c2n1"
  Measured value: "> 9.22 µM (inactive)"
- Chemical structure: "COc1ccccc1CNc1nc(-c2ccoc2)nc2ccccc12"
  Measured value: "> 46 µM (inactive)"
- Chemical structure: "COc1cc2cc(Oc3ccc4ccc(=O)oc4c3)c(=O)oc2cc1O"
  Measured value: "> 46 µM (inactive)"
- Chemical structure: "COCCn1c(=O)c(CCc2ccccc2)nc2cnc(Oc3ccccc3)nc21"
  Measured value: "> 9.22 µM (inactive)"
- Chemical structure: "COc1ccc(Oc2ncc3nc(-c4cccc(C#N)c4)c(=O)n(Cc4cccc(OC)c4)c3n2)cc1"
  Measured value: "> 9.22 µM (inactive)"
- Chemical structure: "COc1cccc(-c2ccc3ncnc(NCc4cnc(C)cn4)c3c2)c1"
  Measured value: "> 46 µM (inactive)"
- Chemical structure: "O=c1c(CCc2ccccc2)nc2cnc(Nc3ccccc3)nc2n1C[C@H]1CCCO1"
  Measured value: "> 9.22 µM (inactive)"
- Chemical structure: "O=c1c(CCc2ccccc2)nc2cnc(Oc3ccccc3)nc2n1C1CC1"
  Measured value: "> 9.22 µM (inactive)"
- Chemical structure: "COc1cccc(-c2ccc3ncnc(Nc4ccccc4)c3c2)c1"
  Measured value: "> 46 µM (inactive)"
- Chemical structure: "Clc1ccccc1-c1nc(-n2ccnc2)c2ccccc2n1"
  Measured value: "> 46 µM (inactive)"

With those in mind, consider the next compound.
Query string: Query: Potency; subject: COc1ccc2[nH]cc(CCNc3ncncc3-c3ccccc3Cl)c2c1
Result string: > 46 µM (inactive)
